Target: T1, 53BP1 tandem Tudor domain (1484-1603) (H. sapiens, UniProt Q12888 1484-1603)
T1 chain: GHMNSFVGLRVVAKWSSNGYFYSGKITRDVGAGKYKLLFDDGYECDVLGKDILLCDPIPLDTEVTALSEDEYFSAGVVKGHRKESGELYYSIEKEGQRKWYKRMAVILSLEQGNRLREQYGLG
Assay: ITC
pKd: −log10 of the molar value. Where no end group is shown, it is not given here. Me2 = dimethyl-lysine

binder: KRHRK(Me2)VLRDN [H4K20me2]
pKd: 4.71

src = paper PMC5974088
